meta.source: patent US20250277022A1

molecular target: human TSLP (human, UniProt Q969D9 29-159); experiment: cell-based or functional assay
Sequence (Q969D9 29-159 R127A/R130S limits assumed): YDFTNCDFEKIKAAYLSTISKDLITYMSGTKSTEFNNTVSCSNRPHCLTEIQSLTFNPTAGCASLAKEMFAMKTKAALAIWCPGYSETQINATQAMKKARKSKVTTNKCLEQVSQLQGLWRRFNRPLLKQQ
readout: IC50, inhibition of TSLP induced proliferation of Ba/F3-TSLPR-IL7Ra cells (CellTiter-Glo) (µg/mL)
Kindly provide the numeric value in µg/mL only, without the unit symbol.

Solved cases below.
>>> recorded_value("TSLP-04 (antibody, V domains shown, also called parent antibody TSLP-04) V domain 1: QEQLVQSGDEVKKPGASVKVSCKSSGFTFGSYAISWVRQAPGQGLEWMGMLVPLLGVTNYAEKFQGRVTITADPSTTTTSMELSSLRSEDTAVYYCARGGSNYLYWYFDLWGPGTPITVSS V domain 2: QSAPIQPRSVSGSPGQSVTISCTGTSSDIGGYNRISWYQQHPGKAPKLMIYDVSKRPSGVSDRFSGSKSGNTASLTISGLQAEDEADYYCSSYAGTDTFVLFGGGTQLTIV")
0.15
>>> recorded_value("TSLP-0207 (antibody, V domains shown) VH: QVQLVQSGAEVKKPGSSVKVSCKASGFTFGSYGISWVRQAPGQGLEWLGVIVPLVGVTIYAEKFQGRVTITADTSTSTAYMELSSLRSEDTAVYYCARGQEYFYWYFDLWGQGTLVTVSS VL: QSALTQPPSASGSPGQSVTISCTGTSSDIGGYNRVSWYQQHPGKAPKLMIYEFNKRPSGVPDRFSGSKSGNTASLTVSGLQAEDEADYYCSSYAGTDIFVLFGGGTKLTVL")
0.133
>>> recorded_value("TSLP-0204 (antibody, V domains shown) VH: QVQLVQSGAEVKKPGSSVKVSCKASGFTFGSYGINWVRQAPGQGLEWLGVIVPLVGVTIYAEKFQGRVTITADTSTSTAYMELSSLRSEDTAVYYCARGQEYFYWYFDLWGQGTLVTVSS VL: QSALTQPPSASGSPGQSVTISCTGTSSDIGGYNRVSWYQQHPGKAPKLMIYEVNKRSSGVPDRFSGSKSGNTASLTVSGLQAEDEADYYCTSYAGTDTFVLFGGGTKLTVL")
0.0422
>>> recorded_value("TSLP-03 (antibody, V domains shown, also called parent antibody TSLP-03) VH: EVQLVESGGGLVQPGGSLRLSCAASGFTFSNYDMTWVRQAPGKGLEWVSSITFASSYIYYADSVKGRFTISRDNAKNSLSLQMNSLRAEDTAVYYCTRGGGAYHGGSLDVWGQGVLVTVSS VL: DIVMTQTPLSLSVTPGEPASISCRSSQSLLHINGYTYLHWYLQKPGQSPQLLIYLVSHRASGVPDRFSGSGSDTDFTLKISRVEAEDVGVYYCEQTLQTPYSFGGGTKVEIK")
0.198
>>> recorded_value("TSLP-0108 (antibody, V domains shown) VH: QVQLQESGPGLVKPSETLSLTCAVSGYSISSGYGWSWIRQPPGKGLEWIGYISYYGSTSYNPSLKSRVTISRDTSKNQFSLKLSSVTAADTAVYYCARTNLLYFDSWGQGTLVTVSS VL: EIVMTQSPATLSLSPGERATLSCRASQSVSNNLAWYQQKPGQAPRLLIYDASSRATGIPARFSGSGSGTDFTLTISSLEPEDFAVYYCQQYSDWPEYSFGQGTKVEIK")
0.0394

Reported IC50, inhibition of TSLP induced proliferation of Ba/F3-TSLPR-IL7Ra cells (CellTiter-Glo) ( TSLP-02 (antibody, V domains shown, also called parent antibody TSLP-02) VH: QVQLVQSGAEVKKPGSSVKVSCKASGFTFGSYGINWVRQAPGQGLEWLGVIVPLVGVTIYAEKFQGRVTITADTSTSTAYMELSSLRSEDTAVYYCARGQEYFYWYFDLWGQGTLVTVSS VL: QSALTQPPSASGSPGQSVTISCSGSSSDIGGYNRVSWYQQHPGKAPKLMIYDVSKRPSGVPDRFSGSKSGNTASLTVSGLQAEDEADYYCSSYAGTDTFILFGGGTKLTVL ) = 0.0175

IC50, inhibition of TSLP induced proliferation of Ba/F3-TSLPR-IL7Ra cells (CellTiter-Glo) in this record for TSLP-0206 (antibody, V domains shown) VH: QVQLVQSGAEVKKPGSSVKVSCKASGFTFGSYGISWVRQAPGQGLEWLGVIVPLVDVTIYAEKFQGRVTITADTSTSTAYMELSSLRSEDTAVYYCARGQEYFYWYFDLWGQGTLVTVSS VL: QSALTQPPSASGSPGQSVTISCTGTISDIGGYNRVSWYQQHPGKAPKLMIYEVSKRPSGVPDRFSGSKSGNTASLTVSGLQAEDEADYYCSSYAGTDTFVFFGGGTKLTVL : 0.0651

Record TSLP-0401 (antibody, V domains shown) V domain 1: QEQLVQSGDEVKKPGASVKVSCKSSGFTFGSYAISWVRQAPGQGLEWMGMIIPLLGVTDYAEKFQGRVTITADPSTTTTSMELSSLRSEDTAVYYCARGGTNYLYWYFDLWGPGTPITVSS V domain 2: QSAPIQPRSVSGSPGQSVTISCTGTSSDIGGYNRVSWYQQHPGKAPKLMIYEVSKRPSGVSDRFSGSKSGNTASLTISGLQAEDEADYYCSAYAGTDTFVLFGGGTQLTIV . Reported IC50, inhibition of TSLP induced proliferation of Ba/F3-TSLPR-IL7Ra cells (CellTiter-Glo): 0.0195

// sample TSLP-0205 (antibody, V domains shown) VH: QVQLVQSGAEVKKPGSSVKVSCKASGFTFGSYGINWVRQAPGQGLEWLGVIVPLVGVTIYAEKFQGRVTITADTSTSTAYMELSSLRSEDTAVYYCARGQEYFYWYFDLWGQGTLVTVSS VL: QSALTQPPSASGSPGQSVTISCTGTTSDIGGYNRVSWYQQHPGKAPKLMIYEVSKRPSGVPDRFSGSKSGNTASLTVSGLQAEDEADYYCSSYAGTDTFAIFGGGTKLTVL , its IC50, inhibition of TSLP induced proliferation of Ba/F3-TSLPR-IL7Ra cells (CellTiter-Glo) was 0.284
